TARGET DESC: T1, biotinylated mouse IL-17A (mouse, UniProt Q62386 26-158, biotinylated)
T1 construct: IL-17A, mouse; also called mIL-17A; murine IL-17A; source: bought: Cell Signaling
T1 sequence (looked up): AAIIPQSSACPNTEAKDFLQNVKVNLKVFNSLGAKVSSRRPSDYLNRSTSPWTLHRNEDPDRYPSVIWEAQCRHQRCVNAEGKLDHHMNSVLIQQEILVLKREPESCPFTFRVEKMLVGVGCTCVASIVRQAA
PROTOCOL TEXT: SPR; Biacore 3000; biotinylated protein captured on a streptavidin chip (about 2500 to 3500 RUs); peptide injected at 50 μl/min, 180 s association, at least 600 s dissociation; 10 mM HEPES pH 7.4, 150 mM NaCl, 0.01% P20, 3% DMSO; single site model, global fit
SETTINGS: both partners purified
Where no end group is shown, it is not given here.

BINDER	Kd, nM
Ac-IHVTIPADLWDWINK (15-residue peptide that combines the key residues found by SAR; made on Rink resin; a C-terminal amide is surmised; also called 30; peptide 30; source: synthetic peptide) [high affinity IL-17A peptide antagonist (HAP)]	30.1
